All figures here come from ChEMBL document CHEMBL1143055.

// reported GI50 for each item listed
procedure.summary: Antitumor activity against human HL60 (TB) cells
Type: functional, HL-60(TB)
experimental.conditions: HL-60
property: GI50 (µM)

> print(dat)
                                   compound  result.operator  quantitative.readout
1  OC[C@H]1C[C@](O)(c2ccc(F)cc2)[C@@H](c2ccc(F)cc2)O1 (relative stereo)                >                   100
2  OC[C@H]1C[C@](O)(c2ccccc2Cl)[C@@H](c2ccccc2Cl)O1 (relative stereo)                =                  16.6
3  CS(=O)(=O)c1ccc([C@H]2O[C@@H](CO)C[C@]2(O)c2ccc(S(C)(=O)=O)cc2)cc1 (relative stereo)                >                   100
4  COc1ccc([C@H]2O[C@@H](CO)C[C@]2(O)c2ccc(OC)cc2)cc1 (relative stereo)                =                  38.9
5  OC[C@H]1C[C@](O)(c2ccc(Cl)cc2)[C@@H](c2ccc(Cl)cc2)O1 (relative stereo)                =                  17.4
6    O=c1[nH]cc(F)c(=O)[nH]1 [FLUOROURACIL]                =                    20
